Data provenance: patent US8247211B2

Tested on: Staphylococcus sp.
Test: In vitro antibacterial evaluation: minimum inhibitory concentration (MIC), broth dilution method
Format: cell-based
Details: Coagulase Negative Staphylococcus (GC 4551); 18 hours at 35° C.
Can you tell me MIC Coagulase Negative Staphylococcus (GC 4551) for the items I'm about to list?
Field format: number, assumed µg/mL, no unit text.

Sample COc1ccc(COCC2OC(OC3C(CO)OC(Oc4ccc(CC5NC(=O)C(C(C)c6ccccc6)NC(=O)CNC(=O)C(CO)NC(=O)C(C(O)C6CNC(=N)N6C6OC(CO)C(O)C(O)C6O)NC(=O)C(C(O)C6CNC(=N)N6)NC5=O)cc4)C(O)C3O)C(O)C(O)C2O)cc1F (centres unmarked) ; MIC Coagulase Negative Staphylococcus (GC 4551) observed: 4

Documented MIC Coagulase Negative Staphylococcus (GC 4551) of CC(C)CC(=O)OC1C(OC2C(CO)OC(Oc3ccc(CC4NC(=O)C(C(C)c5ccc(F)cc5)NC(=O)CNC(=O)C(CO)NC(=O)C(C(O)C5CNC(=N)N5C5OC(CO)C(O)C(O)C5O)NC(=O)C(C(O)C5CNC(=N)N5)NC4=O)cc3)C(O)C2O)OC(CO)C(O)C1O (centres unmarked) [Example 261b] : 8
